What IC50 was measured for each of the following?
Lab book: enter the figure in µM, no units written.

Input line: What is its IC50 for Cathepsin B-like cysteine protease (Trypanosoma brucei, UniProt Q6R7Z5)? Entry: `CCN(CC)CCCNc1c2ccccc2[n+](C)c2c1[nH]c1ccccc12.[Cl-]`
Output line: 97

Input line: # returns recorded IC50 (system: Cathepsin B-like cysteine protease (Trypanosoma brucei, UniProt Q6R7Z5)) for `CN(C)CCNc1c2ccccc2[n+](C)c2c1[nH]c1ccccc12.[Cl-]`
Sequence (Q6R7Z5 whole entry): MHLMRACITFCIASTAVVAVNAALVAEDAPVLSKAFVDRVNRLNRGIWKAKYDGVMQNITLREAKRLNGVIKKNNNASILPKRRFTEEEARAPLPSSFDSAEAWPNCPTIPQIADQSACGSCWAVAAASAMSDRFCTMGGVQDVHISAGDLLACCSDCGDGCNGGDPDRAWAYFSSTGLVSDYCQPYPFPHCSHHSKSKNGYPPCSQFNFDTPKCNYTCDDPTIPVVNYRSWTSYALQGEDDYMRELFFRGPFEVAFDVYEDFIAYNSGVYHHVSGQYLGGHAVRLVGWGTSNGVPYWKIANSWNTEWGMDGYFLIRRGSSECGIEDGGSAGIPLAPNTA
Output line: 91

Input line: Query IC50 on Cathepsin B-like cysteine protease (Trypanosoma brucei, UniProt Q6R7Z5) for `CCN(CC)CCCNc1c2ccc(Cl)cc2[n+](C)c2c1[nH]c1ccccc12.[Cl-]`
Output line: 64

Input line: GET /values?readout=IC50&system=Cathepsin B-like cysteine protease (Trypanosoma brucei, UniProt Q6R7Z5)&item= `C[n+]1c2ccccc2c(NC2CCN(Cc3ccccc3)CC2)c2[nH]c3ccccc3c21.[Cl-]`
Output line: 32
